System: Lung
Experiment: Biodistribution in lung of Sprague-Dawley rat at 50 to 350 uCi, iv
Type: ADME, organism-based
Conditions: in vivo
READOUT KIND: Drug uptake (% ID/g)

MOLECULE	READOUT KIND	MEASUREMENT
N=[11C](N)NCC(O)c1cccc(O)c1 (stereo not drawn)	Drug uptake	0.75
N=[11C](N)NCCc1ccc(O)cc1	Drug uptake	0.68
N=[11C](N)NCCc1cccc(O)c1	Drug uptake	0.74
